Data origin: patent US20250195521A1

Test system: SHP2 variants expressed in T-REx-293 (HEK-293) cells
experiment: pERK AlphaLISA in isogenic T-REx-293-SHP2 cells, EGF stimulated
Type: cell-based
setup-conditions: SHP2 G503V
pIC50: −log10 of the molar value.

given-smiles: Cc1nc(N2CCC3(CC2)CO[C@@H](C)[C@H]3N)c(CO)nc1-c1cccc(Cl)c1Cl
pIC50: < 4.52

====

tgt: KRAS G12D (Homo sapiens (Human), UniProt P01116+P62937, G12D)
Sequence (P01116 other isoform, or with tags, fused parts or gaps G12D): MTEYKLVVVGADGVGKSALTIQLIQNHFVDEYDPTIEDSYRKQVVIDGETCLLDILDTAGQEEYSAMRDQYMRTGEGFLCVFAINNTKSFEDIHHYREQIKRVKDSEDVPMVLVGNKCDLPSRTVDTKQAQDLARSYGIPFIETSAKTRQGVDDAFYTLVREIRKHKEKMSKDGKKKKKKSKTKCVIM
Sequence (P62937 whole entry): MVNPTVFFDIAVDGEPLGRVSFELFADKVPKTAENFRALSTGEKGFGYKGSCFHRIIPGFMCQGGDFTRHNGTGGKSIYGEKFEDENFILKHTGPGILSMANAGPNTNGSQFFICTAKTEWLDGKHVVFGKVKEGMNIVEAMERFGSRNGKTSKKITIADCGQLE
experiment: Ras-Raf disruption/FRET/MOA assay (BRAF RBD, Cyclophilin A)
Assay type: biochemical
setup-conditions: read-out: KRAS G12D FRET IC50
result-type: IC50

given-smiles: CCn1c(-c2cccnc2[C@H](C)OC)c2c3cc(ccc31)-c1cc(O)cc(c1)C[C@H](NC(=O)[C@H](C(C)C)N(C)C(=O)[C@H]1CCCO1)C(=O)N1CCC[C@H](N1)C(=O)OCC(C)(C)C2
result-type: IC50
value: 100 to 1000 nM

given-smiles: CCn1c(-c2cnccc2COC)c2c3cc(ccc31)-c1cc(O)cc(c1)C[C@H](NC(=O)[C@H](C(C)C)N(C)C(=O)C1(C)COC1)C(=O)N1CCC[C@H](N1)C(=O)OCC(C)(C)C2
result-type: IC50
value: 1000 to 10000 nM

given-smiles: CCn1c(-c2cccnc2[C@H](C)OC)c2c3cc(ccc31)-c1csc(n1)C[C@H](NC(=O)[C@H](C(C)C)N(C)C(=O)N1CC3(CC(N(C)C4COC4)C3)C1)C(=O)N1CCC[C@H](N1)C(=O)OCC(C)(C)C2
result-type: IC50
value: 1000 to 10000 nM

given-smiles: CCn1c(-c2cccnc2[C@H](C)OC)c2c3cc(ccc31)-c1csc(n1)C[C@H](NC(=O)[C@H](C(C)C)N(C)C(=O)N(C)C[C@H]1CCCN1C)C(=O)N1CCC[C@H](N1)C(=O)OCC(C)(C)C2
result-type: IC50
value: 1000 to 10000 nM
